Catalogue of AC50 values
molecular target: His6-TEV-PPARγ-(234-505) (Homo sapiens); construct: The His6-TEV-PPARγ-(234-505) protein for assay was expressed and purified; TEV cleavage site (N); made in house; test: TR-FRET Assay to Measure Co-R Peptide Recruitment to PPARγ; format: biochemical; settings: Co-R peptide (SMRT-ID2) recruitment; top final concentration 20 μM; read-out: TR-FRET i-Ag; AC50
Could you give me the number in nM? Just the number is fine.

[
  {
    "COMPOUND": "COc1cc(-c2cc(C(=O)N3CCC(C(=O)NC4CCC(O)(C(F)(F)F)CC4)CC34CC4)n[nH]2)ncn1 (single isomer, unassigned) [Example 338-B]",
    "EXPERIMENTAL VALUE": 723
  },
  {
    "COMPOUND": "COc1cc(-c2cc(C(=O)N3CCC(C(=O)NCc4ccc5c(c4)C(C)(C)CN5)CC3)n[nH]2)c(F)cn1 [Example 278]",
    "EXPERIMENTAL VALUE": 75.1
  },
  {
    "COMPOUND": "COc1cc(-c2cc(C(=O)N3CCC(C(=O)NC4CCCC(O)(C(F)(F)F)C4)CC34CC4)n[nH]2)c(F)cn1 (mixture of isomers) [Example 524]",
    "EXPERIMENTAL VALUE": 128
  },
  {
    "COMPOUND": "COc1cc(-c2cc(C(=O)N3CCC(C(=O)NCC45CCC(O)(CC4)C5)CC34CC4)n[nH]2)c(F)cn1 (single isomer, unassigned) [Example 333-B]",
    "EXPERIMENTAL VALUE": 6.7
  },
  {
    "COMPOUND": "COc1cc(-c2cc(C(=O)N3CCC(C(=O)NCC4CCc5n[nH]cc5C4)CC34CC4)[nH]n2)c(F)cn1 (mixture of isomers) [Example 341]",
    "EXPERIMENTAL VALUE": 5
  }
]

[Q] Item COc1cc(-c2cc(C(=O)N3CCC(C(=O)NC4CCC(O)(C(F)(F)F)CC4)CC3C(F)(F)F)n[nH]2)c(F)cn1 (single isomer, unassigned) [Example 367-A] has what recorded AC50?
[A] 56.7

[Q] Let us now turn to COc1cc(-c2cc(C(=O)N3CCC(C(=O)NCC4CCc5[nH]nc(C)c5C4)CC34CC4)n[nH]2)c(F)cn1 (mixture of isomers) [Example 382]
[A] 4

[Q] Let us now turn to COc1cc(-c2cc(C(=O)N3CC[C@H](C(=O)N[C@H]4CC[C@@](OCCN)(C(F)(F)F)CC4)CC34CC4)n[nH]2)c(F)cn1 [Example 350]
[A] 5.3

[Q] Let us now turn to CO[C@]1(C(F)(F)F)CC[C@@H](NC(=O)[C@@H]2CCN(C(=O)c3cc(-c4cc(C)ncn4)[nH]n3)C3(CC3)C2)CC1 (single isomer, unassigned) [Example 309-C]
[A] 720

[Q] Let us now turn to COc1cc(-c2cc(C(=O)N3CCC(C(=O)NC4CCC(C)CC4)CC3)n[nH]2)c(Cl)cn1 (single isomer, unassigned) [Example 101-B]
[A] 9.2

* * *

target: His6-TEV-PPARγ-(234-505) (Homo sapiens, UniProt P37231); construct: The His6-TEV-PPARγ-(234-505) protein for assay was expressed and purified; TEV cleavage site (N); made in house; experiment: TR-FRET Assay to Measure Co-R Peptide Recruitment to PPARγ; assay type: biochemical; settings: Co-R peptide (SMRT-ID2) recruitment; top final concentration 20 μM; read-out: TR-FRET i-Ag; AC50
Catalogue of AC50 values
Could you give me the number in nM? Just the number is fine.

The cases that follow already have their AC50 on record.
[
  {
    "COMPOUND": "Cc1cc(-c2cc(C(=O)N3CC[C@@H](C(=O)N[C@H]4CC[C@@](O)(C(F)(F)F)CC4)CC34CC4)n[nH]2)c(F)cn1 (single isomer, unassigned) [Example 287-B]",
    "EXPERIMENTAL VALUE": 118
  },
  {
    "COMPOUND": "COc1cc(-c2cc(C(=O)N3CC[C@H](C(=O)NCC45CC(C(F)(F)F)(CO4)C5)CC34CC4)n[nH]2)c(F)cn1 [Example 365]",
    "EXPERIMENTAL VALUE": 10
  },
  {
    "COMPOUND": "Cc1cc(-c2cc(C(=O)N3CCC(C(=O)NCc4cccc(Cl)c4)CC3)n[nH]2)c(Cl)cn1 [Example 262]",
    "EXPERIMENTAL VALUE": 29.2
  },
  {
    "COMPOUND": "COc1cc(-c2cc(C(=O)N3CC[C@H](C(=O)NC(C)c4cc5n(n4)CCN(C)C5)CC34CC4)n[nH]2)c(F)cn1 (single isomer, unassigned) [Example 475-A]",
    "EXPERIMENTAL VALUE": 433
  },
  {
    "COMPOUND": "COc1cc(-c2cc(C(=O)N3CCC(C(=O)NC4CCC(C(F)(F)F)C(O)C4)CC34CC4)n[nH]2)c(F)cn1 (mixture of isomers) [Example 501]",
    "EXPERIMENTAL VALUE": 5.4
  }
]

# context switch: different compound, same AC50
[Q] Item COc1cc(-c2cc(C(=O)N3CCC(C(=O)NC4CCN(C5COC56CCC6)C4)CC34CC4)n[nH]2)c(F)cn1 (mixture of isomers) [Example 464] has what recorded AC50?
[A] 9.3

* * *

target: His6-TEV-PPARγ-(234-505) (Homo sapiens, UniProt P37231); construct: The His6-TEV-PPARγ-(234-505) protein for assay was expressed and purified; TEV cleavage site (N); made in house; assay: TR-FRET Assay to Measure Co-R Peptide Recruitment to PPARγ; assay type: biochemical; conditions: Co-R peptide (SMRT-ID2) recruitment; top final concentration 20 μM; read-out: TR-FRET i-Ag; AC50
Field 'label' (enum: MET / NOT MET). Set to MET when AC50 is strictly under 300 nM; else NOT MET.

[
  {
    "MOLECULE": "COc1cc(-c2cc(C(=O)N3[C@@H]4CC[C@H]3C[C@@H](C(=O)NCc3cccc(Cl)c3)C4)n[nH]2)c(F)cn1 [Example 160-B]",
    "CATEGORY LABEL": "NOT MET"
  },
  {
    "MOLECULE": "COc1cc(-c2cc(C(=O)N3CC[C@H](C(=O)Nc4cnn5ccc(C(C)O)nc45)CC34CC4)n[nH]2)c(F)cn1 (single isomer, unassigned) [Example 445-A]",
    "CATEGORY LABEL": "MET"
  },
  {
    "MOLECULE": "COc1cc(-c2cc(C(=O)N3CCC(C(=O)NCc4cnc(C)o4)CC3)n[nH]2)c(Cl)cn1 [Example 136]",
    "CATEGORY LABEL": "NOT MET"
  }
]

[Q] Decide: AC50 of COc1cc(-c2cc(C(=O)N3CC[C@H](C(=O)NCc4ncccc4C(F)(F)F)CC34CC4)[nH]n2)c(F)cn1 [Example 510] strictly below 300 nM?
[A] MET

[Q] Let us now turn to COc1cc(-c2cc(C(=O)N3CCC(C(=O)NC4[C@@H]5CCC[C@H]4CC5)CC3)n[nH]2)c(F)cn1 (mixture of isomers) [Example 165]
[A] MET

[Q] Let us now turn to COc1cc(-c2cc(C(=O)N3CCC(C(=O)NC4CCC(O)(C(F)(F)F)CC4)CC34CC4)n[nH]2)ncn1 (single isomer, unassigned) [Example 338-A]
[A] MET

[Q] Let us now turn to COc1cc(-c2cc(C(=O)N3CCC(C(=O)NCc4ccc5c(c4)CC(=O)N5C)CC3)n[nH]2)c(Cl)cn1 [Example 235]
[A] NOT MET

[Q] Let us now turn to CCC1CCC(NC(=O)C2CCN(C(=O)c3cc(-c4ccnc(OC)c4)[nH]n3)CC2)CC1 (racemic) [Example 108]
[A] MET

[Q] Let us now turn to COc1cc(-c2cc(C(=O)N3CCC(C(=O)NC4CCC(C)(O)CC4)CC3)n[nH]2)c(Cl)cn1 (stereo not shown) [Example 264-A]
[A] NOT MET

[Q] Let us now turn to COc1cc(-c2cc(C(=O)N3CCC(C(=O)NCC4(C)OCCCO4)CC3)n[nH]2)c(Cl)cn1 [Example 216]
[A] NOT MET

* * *

Molecular target: His6-TEV-PPARγ-(234-505) (Homo sapiens, UniProt P37231)
Construct: The His6-TEV-PPARγ-(234-505) protein for assay was expressed and purified; TEV cleavage site (N); made in house
Sequence (P37231 234-505): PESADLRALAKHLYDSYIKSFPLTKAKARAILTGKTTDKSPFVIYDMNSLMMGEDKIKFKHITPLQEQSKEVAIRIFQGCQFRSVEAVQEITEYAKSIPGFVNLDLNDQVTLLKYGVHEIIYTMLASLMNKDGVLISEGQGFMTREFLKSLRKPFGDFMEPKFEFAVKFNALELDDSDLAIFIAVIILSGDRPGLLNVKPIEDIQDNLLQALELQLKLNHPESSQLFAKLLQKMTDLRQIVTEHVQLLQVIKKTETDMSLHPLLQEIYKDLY
Assay: TR-FRET Assay to Measure Co-R Peptide Recruitment to PPARγ
Assay type: biochemical
Conditions: Co-R peptide (SMRT-ID2) recruitment; top final concentration 20 μM; read-out: TR-FRET i-Ag; AC50
OBSERVED PROPERTY: AC50 (nM)
Could you give me the number in nM? Just the number is fine.

[
  {
    "COMPOUND": "CCc1cc(-c2cc(C(=O)N3CCC(C(=O)NCc4ncc(F)cc4Cl)CC34CC4)n[nH]2)c(F)cn1 (single isomer, unassigned) [Example 483-B]",
    "UOM": "nM",
    "AC50": 0.9
  }
]

# context switch: different compound, same AC50
[Q] Item COc1cc(-c2cc(C(=O)N3CCC(C(=O)NCc4cnccc4C)CC3)n[nH]2)c(Cl)cn1 [Example 131] has what recorded AC50?
[A] 494
